Recorded values, source paper PMC6862323.

Molecular target: R120L hDAAO variant (Homo sapiens, UniProt P14920, R120L)
Construct: His-tag (N); made in house; host or cells: E. coli BL21 (DE3) Star
Sequence (P14920 whole entry R120L): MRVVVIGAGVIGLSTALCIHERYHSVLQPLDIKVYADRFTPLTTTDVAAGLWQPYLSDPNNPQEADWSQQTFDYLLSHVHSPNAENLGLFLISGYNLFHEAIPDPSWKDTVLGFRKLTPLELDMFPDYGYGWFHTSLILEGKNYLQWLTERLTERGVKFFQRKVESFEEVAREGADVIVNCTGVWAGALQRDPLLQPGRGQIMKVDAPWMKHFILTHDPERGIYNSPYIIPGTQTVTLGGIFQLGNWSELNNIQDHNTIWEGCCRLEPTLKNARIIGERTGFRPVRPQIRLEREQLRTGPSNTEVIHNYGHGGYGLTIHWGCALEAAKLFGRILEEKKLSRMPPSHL
Assay: FAD and ligand binding by quenching of protein fluorescence, R120L hDAAO
Conditions: in presence of 70 μM benzoate; read-out: FAD Kd, benzoate complex, first saturation phase
REPORTED PROPERTY: Kd (nM)
Give bare numbers, in nM.

### Prompt Consider the compound "Cc1cc2nc3c(=O)[nH]c(=O)nc-3n(C[C@H](O)[C@H](O)[C@H](O)COP(=O)(O)OP(=O)(O)OC[C@H]3O[C@@H](n4cnc5c(N)ncnc54)[C@H](O)[C@@H]3O)c2cc1C" and give its measured Kd.
### Response 70
